Source: paper PMC9701171

- assayed-system: HbA (Homo sapiens)
- Sequence (P69905 2-142 limits assumed): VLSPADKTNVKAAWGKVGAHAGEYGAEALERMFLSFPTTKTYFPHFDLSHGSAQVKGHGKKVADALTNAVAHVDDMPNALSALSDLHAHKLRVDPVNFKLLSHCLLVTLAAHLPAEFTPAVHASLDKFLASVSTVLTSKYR
- Sequence (P68871 2-147 partner limits assumed): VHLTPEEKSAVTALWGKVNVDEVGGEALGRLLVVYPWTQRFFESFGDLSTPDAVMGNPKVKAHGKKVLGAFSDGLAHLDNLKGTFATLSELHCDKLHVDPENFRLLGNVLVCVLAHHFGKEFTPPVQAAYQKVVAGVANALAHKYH
- procedure-details: Steady-state concentration-dependent HbA binding
- protocol-conditions: SS concentration-dependency, sigmoidal Bmax model; PE (COV)
For each entry below, report its n (Hill coefficient) value.

Form field, n (Hill coefficient) with HbA (Homo sapiens), item `CC(C)n1nccc1-c1ncccc1COc1cccc(O)c1C=O` : 1.6 (16%)

Form field, n (Hill coefficient) with HbA (Homo sapiens), item `COc1ccc(OCc2ccccn2)c(C=O)c1` : 2.4 (20%)

Form field, n (Hill coefficient) with HbA (Homo sapiens), item O=Cc1ccc(CO)o1 [5-HMF, 5-Hydroxymethyl-2-furfural] : 1.1 (10%)

Form field, n (Hill coefficient) with HbA (Homo sapiens), item `O=Cc1c(O)cccc1OCc1cccc(CO)n1` : 1.9 (34%)

Form field, n (Hill coefficient) with HbA (Homo sapiens), item `O=Cc1ccc(C=O)o1` : 1.7(21%)
